Molecular target: T1, soluble human FcRn (shFcRn) (human, UniProt P55899 24-297; P61769 21-119, biotinylated with Sulfo-NHS-LC-Biotin in the ELISA; amine-coupled to a CM5 chip in SPR)
T1 construct: also called biotinylated shFcRn
T1 sequence (P55899 24-297 limits assumed, chain 1 of 2): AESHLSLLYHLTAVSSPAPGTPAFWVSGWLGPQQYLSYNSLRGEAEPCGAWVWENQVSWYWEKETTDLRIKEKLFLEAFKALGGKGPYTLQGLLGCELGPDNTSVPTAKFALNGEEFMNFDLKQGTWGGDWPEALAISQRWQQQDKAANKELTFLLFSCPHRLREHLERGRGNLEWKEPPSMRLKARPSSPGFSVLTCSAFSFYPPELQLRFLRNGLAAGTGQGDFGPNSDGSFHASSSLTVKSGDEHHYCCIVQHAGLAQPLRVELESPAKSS
T1 sequence (P61769 21-119 limits assumed, chain 2 of 2): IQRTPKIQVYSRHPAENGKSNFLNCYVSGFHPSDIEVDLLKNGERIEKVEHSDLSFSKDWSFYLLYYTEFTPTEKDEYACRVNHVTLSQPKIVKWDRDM
Experiment: SPR, pH 6
Positions of bridges follow the written chain, without caps; N, C: chain ends. Non-standard residues stand in square brackets, D forms with d. No end group written: not given here. NMeA = CN[C@@H](C)C(=O)O
Recorded Kd values for a group of binders are listed next.
# answer = value followed by unit

Worked set:
QRFC[NMeA]GHFGGLYPCNGP-NH2 (disulfide 4-14; N-terminus assumed; SMILES CC(C)C[C@@H]1NC(=O)CNC(=O)CNC(=O)[C@H](Cc2ccccc2)NC(=O)[C@H](Cc2c[nH]cn2)NC(=O)CNC(=O)[C@H](C)N(C)C(=O)[C@@H](NC(=O)[C@H](Cc2ccccc2)NC(=O)[C@H](CCCNC(=N)N)NC(=O)[C@@H](N)CCC(N)=O)CSSC[C@@H](C(=O)N[C@@H](CC(N)=O)C(=O)NCC(=O)N2CCC[C@H]2C(N)=O)NC(=O)[C@@H]2CCCN2C(=O)[C@H](Cc2ccc(O)cc2)NC1=O) [Peptide No. 196] :: 18 µM
RFXTGHFGXXYPC (Pen3; Sar9; NMeLeu10; disulfide; C-terminal amide) [Peptide No. 235] :: 0.031 µM

Retrieve Kd measured for QRFXTXHFGGLYPCNGP (Pen4; Sar6; disulfide; C-terminal amide) [Peptide No. 108] and print it.
88 µM

Let me know recorded Kd for QRFXTGHFXXLYPCNGP (Pen4; D-Phe9; D-Pro10; disulfide; C-terminal amide) [Peptide No. 150] , thanks.
0.72 µM
